Numbers sourced from PubChem BioAssay (NCI).

Test system: NCI-H23 lung
measurement-notes: NCI tumour cell line growth inhibition, 48 h
Where a SMILES comes first, the peptide text is derived from it. Bridges are numbered along the chain shown (N, C = ends). [ ]: non-standard residue; d: D form. The star is where a group is joined. ξ: configuration not given here. ξNMePhe(4-NMe2) = CNC(Cc1ccc(N(C)C)cc1)C(=O)O; Picolinoyl(3-OH) = O=C(c1ncccc1O)*; ξPip(4-oxo) = O=C1CCNC(C(=O)O)C1; Phg = N[CH](C(=O)O)c1ccccc1; Abu = CC[CH](N)C(=O)O
Measured TGI, listed per entry.

>  <compound>
CCC1NC(=O)C(NC(=O)c2ncccc2O)C(C)OC(=O)C(c2ccccc2)NC(=O)C2CC(=O)CCN2C(=O)C(Cc2ccc(N(C)C)cc2)N(C)C(=O)C2CCCN2C1=O (stereo not given) (tested in a mixture with another compound) ({Picolinoyl(3-OH)}-T[Abu]P[ξNMePhe(4-NMe2)][ξPip(4-oxo)][Phg]; ester 1-C; configuration not given here)

>  <unit-of-measurement>
µM

>  <value-prefix>
=

>  <TGI>
34.5

$$$$
>  <compound>
CCCCc1ccc(Nc2nc(N)c3ncn(COCCO)c3n2)cc1

>  <unit-of-measurement>
µM

>  <value-prefix>
=

>  <TGI>
56.3

$$$$
>  <compound>
O=C(N/C(=C\c1ccc(Oc2ccc(Cl)c(Cl)c2)cc1)c1nc2ccccc2[nH]1)c1ccccc1

>  <unit-of-measurement>
µM

>  <value-prefix>
=

>  <TGI>
27.7

$$$$
>  <compound>
Clc1ccc(-c2nnc(C34CC5CC(CC(C5)C3)C4)o2)cc1

>  <unit-of-measurement>
µM

>  <value-prefix>
>

>  <TGI>
100

$$$$
>  <compound>
CC1=Nn2c(nnc2-c2ccc(N)cc2)NC(C)(C)C1

>  <unit-of-measurement>
µM

>  <value-prefix>
>

>  <TGI>
100

$$$$
